# METHOD DESCRIPTION: Cytotoxicity against human MCF7 cells assessed as inhibition of cell growth at 50 uM after 72 hrs by MTT assay relative to control
# Format: cell-based
MEASUREMENT NAME: inhibition at 72 h, 50 µM

INSERT INTO assay_data (smiles_repr, result_value) VALUES
  ('COc1cc(OC)c(OC)cc1Cc1coc2cc(O)cc(O)c2c1=O', '49.5%');

* * *

# Tested on: SH-SY5Y
# METHOD DESCRIPTION: Neuroprotective activity against MPP+-induced injury in human SH-SY5Y cells assessed as cell viability at 5 uM preincubated for 16 hrs followed by MPP+ addition measured after 8 hrs (reference value: 40.71 to 55.85%)
# Assay type: functional
# CONDITION PARAMETERS: read-out: Activity
Please use class 1 for viability at 5 µM under 60% and class 0 for everything else, ties included.

INSERT INTO results (smiles_repr, group) VALUES
  ('COc1ccccc1Cc1coc2cc(O)ccc2c1=O', 'class 1'),
  ('COc1ccc(Cc2coc3cc(OC(=O)N(C)C)cc(O)c3c2=O)cc1', 'class 1'),
  ('COc1cc(OC)c2c(=O)c(Cc3ccc(Cl)c(Cl)c3)coc2c1', 'class 0'),
  ('COc1cc(OC)c2c(=O)c(Cc3cccs3)coc2c1', 'class 1'),
  ('COc1cc(OC)c(OC)cc1Cc1coc2cc(O)cc(O)c2c1=O', 'class 0');

Values were extracted from ChEMBL document CHEMBL3997823.
